# ASSAY TARGET: T1, human PAI-1 (human, UniProt P05121 24-402)
# T1 construct: also used for endogenous PAI-1 of human plasma, liver lysate and lung fibroblasts; also called hPAI-1; hPAI
# T1 sequence (P05121 24-402 limits assumed): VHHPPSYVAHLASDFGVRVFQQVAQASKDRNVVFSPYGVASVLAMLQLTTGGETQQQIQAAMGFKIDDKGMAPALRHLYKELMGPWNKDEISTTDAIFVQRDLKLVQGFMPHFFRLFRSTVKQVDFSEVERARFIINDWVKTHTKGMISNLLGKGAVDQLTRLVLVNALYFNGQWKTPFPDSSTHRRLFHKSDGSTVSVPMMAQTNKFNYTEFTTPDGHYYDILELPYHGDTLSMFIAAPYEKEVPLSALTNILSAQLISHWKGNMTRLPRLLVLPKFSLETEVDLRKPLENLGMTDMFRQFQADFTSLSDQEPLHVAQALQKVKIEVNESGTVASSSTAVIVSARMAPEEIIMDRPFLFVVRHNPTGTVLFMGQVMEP
# ASSAY INFO: Biacore, mAb on anti-human IgG Fc chip, 1:1 model
RECORDED METRIC: Kd (nM)
The response must be a number in nM with no trailing unit.

Some solved cases for reference:
>>> reported_result("A44-hv13 (antibody, V domains shown, humanized A44, HEK293; constant regions as for A44-hv1; also called LC2 x HC5b; variant 13) VH: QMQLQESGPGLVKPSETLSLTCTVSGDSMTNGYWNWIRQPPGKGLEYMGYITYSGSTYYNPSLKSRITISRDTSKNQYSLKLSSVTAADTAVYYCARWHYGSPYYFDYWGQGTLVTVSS VL: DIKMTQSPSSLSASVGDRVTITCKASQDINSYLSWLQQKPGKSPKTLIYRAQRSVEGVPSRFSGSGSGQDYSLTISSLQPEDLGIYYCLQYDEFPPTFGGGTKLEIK")
0.0164
>>> reported_result("A44-hv12 (antibody, V domains shown, humanized A44, HEK293; constant regions as for A44-hv1; also called LC4 x HC3; variant 12) VH: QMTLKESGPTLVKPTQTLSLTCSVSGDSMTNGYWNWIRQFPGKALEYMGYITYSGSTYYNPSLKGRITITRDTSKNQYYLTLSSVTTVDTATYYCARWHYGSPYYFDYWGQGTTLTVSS VL: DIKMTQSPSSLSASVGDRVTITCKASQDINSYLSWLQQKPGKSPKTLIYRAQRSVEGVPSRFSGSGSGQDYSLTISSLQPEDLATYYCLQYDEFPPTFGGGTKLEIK")
0.0414
>>> reported_result("A44-hv11 (antibody, V domains shown, humanized A44, HEK293; compared with a human IgG1 isotype control; constant regions as for A44-hv1; also called A44V11; A44v11) VH: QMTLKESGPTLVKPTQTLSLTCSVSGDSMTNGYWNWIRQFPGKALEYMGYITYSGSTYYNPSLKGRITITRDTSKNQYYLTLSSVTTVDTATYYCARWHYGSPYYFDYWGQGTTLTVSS VL: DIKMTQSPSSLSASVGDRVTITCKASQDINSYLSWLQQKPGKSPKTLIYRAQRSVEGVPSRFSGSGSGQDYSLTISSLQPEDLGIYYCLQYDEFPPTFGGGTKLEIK")
0.0425

Let us examine a further case.
Q. Please indicate Kd recorded for A44-hv14 (antibody, V domains shown, humanized A44, HEK293; constant regions as for A44-hv1; also called LC4 x HC5b; variant 14) VH: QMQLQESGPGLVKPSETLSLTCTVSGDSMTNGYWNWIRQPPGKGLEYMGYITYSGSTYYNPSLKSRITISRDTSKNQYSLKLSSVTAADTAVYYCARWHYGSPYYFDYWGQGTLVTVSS VL: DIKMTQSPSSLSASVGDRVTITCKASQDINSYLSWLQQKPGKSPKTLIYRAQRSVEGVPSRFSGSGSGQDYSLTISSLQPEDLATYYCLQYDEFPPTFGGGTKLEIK
A. 0.027
